Experiment: Safety index, ratio of HMBPP IC50 to compound IC50 for human K562 cells
Assay type: ADME, cell-based
Details: read-out: Ratio IC50
Listed here are molecules together with their documented selectivity ratio.

INSERT INTO assay_data (molecule, observed_value) VALUES
  ('CC(C)=CCCP(=O)(CP(=O)(OCOC(=O)C(C)(C)C)OCOC(=O)C(C)(C)C)OCOC(=O)C(C)(C)C (configuration not stated)', '> 10');

Input line: Report selectivity ratio for C/C(=C\CCP(=O)(CP(=O)(OCOC(=O)C(C)(C)C)OCOC(=O)C(C)(C)C)OCOC(=O)C(C)(C)C)CO (configuration not stated) please.
Output line: > 29

---

Assay: Toxicity in human Vgamma9/Vdelta2 T cells treated for 72 hrs measured on day 11 post last treatment by flow cytometry
Assay type: cell-based, Vgamma9/Vdelta2 T cell
assay_metric: IC50 at 72 h (µM)
Give the value, in units of µM, as a plain number.

INSERT INTO assay_data (compound, assay_metric, observed_value) VALUES
  ('C/C(=C\CCP(=O)(CP(=O)(OCOC(=O)C(C)(C)C)OCOC(=O)C(C)(C)C)OCOC(=O)C(C)(C)C)CO (configuration not stated)', 'IC50 at 72 h', 3.5),
  ('C/C(=C\CCP(=O)(OCOC(=O)C(C)(C)C)OCOC(=O)C(C)(C)C)CO', 'IC50 at 72 h', 0.6);

Proceeding to the next compound to report its IC50 at 72 h.
Input line: What does the data say about its IC50 at 72 h? Entry: C/C(=C\COP(=O)(O)OP(=O)(O)O)CO
Output line: 0.5

---

Assay: Toxicity in human Vgamma9/Vdelta2 T cells treated for 72 hrs measured on day 11 post last treatment by flow cytometry
Assay type: cell-based, Vgamma9/Vdelta2 T cell
Quick reference: IC50 at 72 h of the listed items.

INSERT INTO assay_data (molecule, assay_metric, observed_value) VALUES
  ('CC(C)=CCCP(=O)(O)CP(=O)(O)O', 'IC50 at 72 h', '> 100 µM'),
  ('CC(C)=CCCP(=O)(CP(=O)(OCOC(=O)C(C)(C)C)OCOC(=O)C(C)(C)C)OCOC(=O)C(C)(C)C (centres undefined)', 'IC50 at 72 h', '> 100 µM'),
  ('C/C(=C\CCP(=O)(O)CP(=O)(O)O)CO', 'IC50 at 72 h', '> 100 µM');

Input line: Requested read-out: IC50 at 72 h. Entry: COP(=O)(CC/C=C(\C)CO)CP(=O)(OC)OC (centres undefined)
Output line: > 100 µM

Reference source: ChEMBL document CHEMBL4007426
